Attribution: patent US20230416261A1

- Tested on: DOHH2 cells
- ASSAY_DETAILS: DOHH2 Long Term Phenotypic Assay (7 days, Cell Titer-Glo viability)
- Assay type: cell-based
- EXPERIMENTAL_CONTEXT: Homo sapiens, DOHH-2, 168 h, Cell Titer-Glo 2.0
READOUT_TYPE: IC50
Write the numeric value and append its unit.

INPUT: Please list IC50 recorded for the molecule CNCCN(C)Cc1nn2c(c1C1CCC(COC)(COC)CC1)CN(C(=O)C1CC(OC)C1)CC2 (stereo not shown) [Example 58]
OUTPUT: 131 nM

INPUT: Please list IC50 recorded for the molecule CNCCN(C)Cc1nn2c(c1C1CCC(COC)(COC)CC1)CN(C(=O)C1CCCO1)CC2 (stereo not shown) [Example 32]
OUTPUT: 160 nM

INPUT: Please list IC50 recorded for the molecule COCC1(COC)CCC(c2c(CN(C)CCN)nn3c2CN(C(=O)C2CC(F)(F)C2)CC3)CC1 [Example 40]
OUTPUT: 249 nM

INPUT: Please list IC50 recorded for the molecule CNCCN(C)Cc1nn2c(c1C1CCC(COC)(COC)CC1)CN(C(=O)C(C)C#N)CC2 (stereo not shown) [Example 38]
OUTPUT: 83 nM

INPUT: Please list IC50 recorded for the molecule CNCCN(C)Cc1nn2c(c1C1CCC(COC)(COC)CC1)CN(C(=O)C13CC(OC)(C1)C3)CC2 [Example 25]
OUTPUT: 150 nM

INPUT: Please list IC50 recorded for the molecule CNCCN(C)Cc1nn2c(c1C1CCC(COC)(COC)CC1)CN(C(=O)C1(OC)CC1)CC2 [Example 14]
OUTPUT: 211 nM

INPUT: Please list IC50 recorded for the molecule CNCCN(C)Cc1nn2c(c1C1CCC(COC)(COC)CC1)CN(C(=O)C1(C)CCC1)CC2 [Example 19]
OUTPUT: 87 nM

INPUT: Please list IC50 recorded for the molecule CCOC12CC(C(=O)N3CCn4nc(CN(C)CCNC)c(C5CCC(COC)(COC)CC5)c4C3)(C1)C2 [Example 26]
OUTPUT: 844 nM

INPUT: Please list IC50 recorded for the molecule CNCCN(C)Cc1nn2c(c1C1CCC(COC)(COC)CC1)CN(C(=O)C(C)(C)F)CC2 [Example 59]
OUTPUT: 113 nM

INPUT: Please list IC50 recorded for the molecule CNCCN(C)Cc1nn2c(c1C1CCC(COC)(COC)CC1)CN(C(=O)C1CCCC1)CC2 [Example 33]
OUTPUT: 83 nM

INPUT: Please list IC50 recorded for the molecule CNCCN(C)Cc1nn2c(c1C1CCC(COC)(COC)CC1)CN(C(=O)C1(OC)CCC1)CC2 [Example 28]
OUTPUT: 207 nM

INPUT: Please list IC50 recorded for the molecule CNCCN(C)Cc1nn2c(c1C1CCC(COC)(COC)CC1)CN(C(=O)C1CC(C(F)(F)F)C1)CC2 (stereo not shown) [Example 74]
OUTPUT: 93 nM

INPUT: Please list IC50 recorded for the molecule COCC1(COC)CCC(c2c(CN(C)CCN)nn3c2CN(C(=O)C2CC2)CC3)CC1 [Example 6]
OUTPUT: 138 nM

INPUT: Please list IC50 recorded for the molecule COCC1(COC)CCC(c2c(CN(C)CCN)nn3c2CN(C(=O)C2CC(C)(C)C2)CC3)CC1 [Example 61]
OUTPUT: 224 nM

INPUT: Please list IC50 recorded for the molecule CNCCN(C)Cc1nn2c(c1C1CCC(COC)(COC)CC1)CN(C(=O)C1(C)CCCC1)CC2 [Example 80]
OUTPUT: 104 nM

INPUT: Please list IC50 recorded for the molecule COCC1(COC)CCC(c2c(CN(C)CCN)nn3c2CN(C(=O)C2CCC2)CC3)CC1 [Example 11]
OUTPUT: 111 nM

INPUT: Please list IC50 recorded for the molecule CNCCN(C)Cc1nn2c(c1C1CCC(COC)(COC)CC1)CN(C(=O)C1CCC(F)(F)CC1)CC2 [Example 29]
OUTPUT: 99 nM

INPUT: Please list IC50 recorded for the molecule CNCCN(C)Cc1nn2c(c1C1CCC(COC)(COC)CC1)CN(C(=O)C13CC(F)(C1)C3)CC2 [Example 21]
OUTPUT: 96 nM

INPUT: Please list IC50 recorded for the molecule COCC1(COC)CCC(c2c(CN(C)CCN)nn3c2CN(C(=O)C(C)C)CC3)CC1 [Example 43]
OUTPUT: 185 nM
